Source listed as ChEMBL document CHEMBL4004877.

assay: Cytotoxicity against LPS-stimulated mouse RAW264.7 cells assessed as cell viability at 2.5 ug/ml after 24 hrs by MTT assay relative to control; assay type: cell-based; details: LPS-stimulated RAW264.7 cells, read-out: Activity
outcome.measure: viability at 24 h, 2.5 ug/ml (%)
Answer in %, number only, no unit symbol.

[Q] What value of viability at 24 h, 2.5 ug/ml has been reported for the following compound? `COc1ccc(CCC(=O)c2ccc(OC)c(OC)c2)cc1O`
[A] 92.1

[Q] Which viability at 24 h, 2.5 ug/ml value is on record for `COc1ccc(C(=O)CCc2ccc3c(c2)OCO3)c(O)c1` ?
[A] 96.8

[Q] GET /values?readout=viability at 24 h, 2.5 ug/ml&item= `COc1ccc(OC)c(CCCc2cccc(O)c2)c1`
[A] 98.2

[Q] Would you kindly share the measured viability at 24 h, 2.5 ug/ml for `COc1cccc(/C=C/C(=O)c2cccc(O)c2)c1OC` ?
[A] 70.8

[Q] // lookup viability at 24 h, 2.5 ug/ml for `COc1ccc(C(=O)/C=C/c2cc(OC)ccc2OC)c(O)c1`
[A] 93.3

[Q] Data request, read-out viability at 24 h, 2.5 ug/ml, for `COc1ccc(CCC(=O)c2ccc(OC)c(OC)c2)cc1`
[A] 98.6
